# System: Sprague-Dawley (SD) rats
# measurementDescription: Urinary glucose excretion test in rats
# Assay type: in vivo, rat
# testSettings: male SD rats; 30 mg/kg by oral gavage; urine collected for 24 hours; daily amount of glucose excreted in urine per individual
measuredAttribute: Urinary glucose

                                   compound              datavalue
0  Cc1cccc2c1c(Cc1ccc(Br)cc1)cn2[C@@H]1O[C@H](CO)[C@@H](O)[C@H](O)[C@H]1O [Example 38]  B (2400 mg>B≧2000 mg)
1  OC[C@H]1O[C@@H](n2cc(Cc3ccc(OC(F)F)cc3)c3c(Cl)cccc32)[C@H](O)[C@@H](O)[C@@H]1O [Example 31]          A (A≧2400 mg)
2  OC[C@H]1O[C@@H](n2cc(Cc3ccc(Cl)cc3)c3c(Cl)cccc32)[C@H](O)[C@@H](O)[C@@H]1O [Example 6]          A (A≧2400 mg)
3  CCc1ccc(Cc2cn([C@@H]3O[C@H](CO)[C@@H](O)[C@H](O)[C@H]3O)c3cccc(F)c23)cc1 [Example 2]          A (A≧2400 mg)
4  CCOc1ccc(Cc2cn([C@@H]3O[C@H](CO)[C@@H](O)[C@H](O)[C@H]3O)c3cccc(Cl)c23)cc1 [Example 3]  B (2400 mg>B≧2000 mg)
5  OC[C@H]1O[C@@H](n2cc(Cc3ccc(I)cc3)c3c(Cl)cc(Cl)cc32)[C@H](O)[C@@H](O)[C@@H]1O [Example 36]  B (2400 mg>B≧2000 mg)

====

# targetSystem: human SGLT2 (Homo sapiens, UniProt P31639)
# Construct: expressed in transfected cells; host or cells: CHOK1 (Chinese hamster ovary) cells, kept under Geneticin selection
# measurementDescription: Assay for SGLT2 inhibition (14C-AMG uptake in CHOK1 cells expressing human SGLT2)
# Assay type: cell-based
pIC50: −log10 of the molar value.
measuredAttribute: pIC50

>>> df
                                  cpdsmiles  datavalue
0  Cc1cccc2c1c(Cc1ccc(C3CC3)cc1)cn2[C@@H]1O[C@H](CO)[C@@H](O)[C@H](O)[C@H]1O       8.80

====

# targetSystem: human SGLT2 (Homo sapiens)
# Construct: expressed in transfected cells; host or cells: CHOK1 (Chinese hamster ovary) cells, kept under Geneticin selection
# Sequence (P31639 1-672): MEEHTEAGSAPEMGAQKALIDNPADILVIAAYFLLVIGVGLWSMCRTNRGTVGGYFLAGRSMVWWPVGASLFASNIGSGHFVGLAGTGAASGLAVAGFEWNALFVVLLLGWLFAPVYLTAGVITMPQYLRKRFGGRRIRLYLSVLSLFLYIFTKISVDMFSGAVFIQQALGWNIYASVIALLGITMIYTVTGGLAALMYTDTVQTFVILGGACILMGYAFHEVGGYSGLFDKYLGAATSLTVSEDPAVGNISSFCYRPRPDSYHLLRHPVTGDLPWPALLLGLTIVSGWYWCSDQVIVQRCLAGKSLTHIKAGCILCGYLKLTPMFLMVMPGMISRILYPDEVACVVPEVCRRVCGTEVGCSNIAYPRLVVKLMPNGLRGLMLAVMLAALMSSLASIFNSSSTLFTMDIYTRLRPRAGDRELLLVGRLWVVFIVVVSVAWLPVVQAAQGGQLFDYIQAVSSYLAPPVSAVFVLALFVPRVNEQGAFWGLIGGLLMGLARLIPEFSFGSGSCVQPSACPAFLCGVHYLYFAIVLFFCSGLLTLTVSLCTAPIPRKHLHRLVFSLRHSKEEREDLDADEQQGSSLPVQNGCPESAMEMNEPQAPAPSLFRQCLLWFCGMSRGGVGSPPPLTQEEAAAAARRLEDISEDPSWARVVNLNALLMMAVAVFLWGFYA
# measurementDescription: Assay for SGLT2 inhibition (14C-AMG uptake in CHOK1 cells expressing human SGLT2)
# Format: cell-based
# testSettings: CHOK1 cells expressing human SGLT2; 14C-AMG uptake, 0.5 mM, 2 hours at 37° C.; read-out: IC50
Label Condition met when IC50 is strictly below 3 nM; otherwise label Condition not met.

                                   cpdsmiles              class
 0  CCOc1ccc(Cc2cn([C@@H]3O[C@H](CO)[C@@H](O)[C@H](O)[C@H]3O)c3cccc(F)c23)cc1  Condition not met
 1  Cc1cccc2c1c(Cc1ccc(-c3cccc(C#N)c3)s1)cn2[C@@H]1O[C@H](CO)[C@@H](O)[C@H](O)[C@H]1O      Condition met
 2  Cc1ccc(Cc2cn([C@@H]3O[C@H](CO)[C@@H](O)[C@H](O)[C@H]3O)c3cccc(F)c23)cc1  Condition not met
 3  CCc1ccc(Cc2cn([C@@H]3O[C@H](CO)[C@@H](O)[C@H](O)[C@H]3O)c3cccc(F)c23)cc1  Condition not met
 4  COc1ccc(Cc2cn([C@@H]3O[C@H](CO)[C@@H](O)[C@H](O)[C@H]3O)c3cccc(F)c23)cc1  Condition not met
 5  OC[C@H]1O[C@@H](n2cc(Cc3ccc(Cl)cc3)c3c(Cl)cccc32)[C@H](O)[C@@H](O)[C@@H]1O  Condition not met
 6  Cc1ccc(Cc2cn([C@@H]3O[C@H](CO)[C@@H](O)[C@H](O)[C@H]3O)c3cccc(Cl)c23)cc1      Condition met
 7  OC[C@H]1O[C@@H](n2cc(Cc3ccc(OCCCl)cc3)c3c(F)cccc32)[C@H](O)[C@@H](O)[C@@H]1O  Condition not met
 8  Cc1cccc2c1c(Cc1ccc(-c3ccc(F)nc3)s1)cn2[C@@H]1O[C@H](CO)[C@@H](O)[C@H](O)[C@H]1O  Condition not met
 9  CCc1ccc(Cc2cn([C@@H]3O[C@H](CO)[C@@H](O)[C@H](O)[C@H]3O)c3cccc(Cl)c23)cc1      Condition met
10  COc1ccc(Cc2cn([C@@H]3O[C@H](CO)[C@@H](O)[C@H](O)[C@H]3O)c3cccc(Cl)c23)cc1      Condition met
11  CCc1ccc(Cc2cn([C@@H]3O[C@H](CO)[C@@H](O)[C@H](O)[C@H]3O)c3cccc(Br)c23)cc1  Condition not met
12  OC[C@H]1O[C@@H](n2cc(Cc3ccc(I)cc3)c3c(Cl)c(F)ccc32)[C@H](O)[C@@H](O)[C@@H]1O  Condition not met
13  OC[C@H]1O[C@@H](n2cc(Cc3ccc4c(c3)CCO4)c3c(Cl)cccc32)[C@H](O)[C@@H](O)[C@@H]1O      Condition met

====

# targetSystem: human SGLT2 (Homo sapiens)
# Construct: expressed in transfected cells; host or cells: CHOK1 (Chinese hamster ovary) cells, kept under Geneticin selection
# measurementDescription: Assay for SGLT2 inhibition (14C-AMG uptake in CHOK1 cells expressing human SGLT2)
# Format: cell-based
# testSettings: CHOK1 cells expressing human SGLT2; 14C-AMG uptake, 0.5 mM, 2 hours at 37° C.; read-out: IC50
pIC50: −log10 of the molar value.
measuredAttribute: pIC50

>>> print(df.to_string())
                                  cpdsmiles                targetsystem  measuredattribute  datavalue
0  OC[C@H]1O[C@@H](n2cc(Cc3ccc(C(F)F)cc3)c3c(Cl)cccc32)[C@H](O)[C@@H](O)[C@@H]1O  human SGLT2 (Homo sapiens)              pIC50       8.49
1  OC[C@H]1O[C@@H](n2cc(Cc3ccc(Br)s3)c3c(Cl)cccc32)[C@H](O)[C@@H](O)[C@@H]1O  human SGLT2 (Homo sapiens)              pIC50       8.30
2  OC[C@H]1O[C@@H](n2cc(Cc3ccc(OC(F)F)cc3)c3c(Cl)cccc32)[C@H](O)[C@@H](O)[C@@H]1O  human SGLT2 (Homo sapiens)              pIC50       8.59
3  OC[C@H]1O[C@@H](n2cc(Cc3ccc(C(F)F)cc3)c3c(F)cccc32)[C@H](O)[C@@H](O)[C@@H]1O  human SGLT2 (Homo sapiens)              pIC50       7.96
4  OC[C@H]1O[C@@H](n2cc(Cc3ccc(Cl)cc3)c3c(Br)cccc32)[C@H](O)[C@@H](O)[C@@H]1O  human SGLT2 (Homo sapiens)              pIC50       7.70
5  Cc1cccc2c1c(Cc1ccc(I)cc1)cn2[C@@H]1O[C@H](CO)[C@@H](O)[C@H](O)[C@H]1O  human SGLT2 (Homo sapiens)              pIC50       8.44
6  Cc1cccc2c1c(Cc1ccc(Br)cc1)cn2[C@@H]1O[C@H](CO)[C@@H](O)[C@H](O)[C@H]1O  human SGLT2 (Homo sapiens)              pIC50       7.92
